Entries and their pEC50 values follow.
- test_system: human CB2R (Homo sapiens, UniProt P34972)
- Sequence (P34972 whole entry): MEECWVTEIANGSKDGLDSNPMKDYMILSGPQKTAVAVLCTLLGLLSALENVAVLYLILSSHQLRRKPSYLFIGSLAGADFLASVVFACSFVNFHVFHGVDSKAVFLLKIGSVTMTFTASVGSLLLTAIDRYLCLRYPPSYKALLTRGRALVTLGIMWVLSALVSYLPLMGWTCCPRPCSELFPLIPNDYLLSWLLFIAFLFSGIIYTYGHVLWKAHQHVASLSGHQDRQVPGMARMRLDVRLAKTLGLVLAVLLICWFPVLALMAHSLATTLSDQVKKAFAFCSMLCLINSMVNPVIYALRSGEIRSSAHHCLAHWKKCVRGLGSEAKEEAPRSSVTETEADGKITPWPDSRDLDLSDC
- assay_summary: CB2R mediated modulation of cAMP synthesis
- Assay type: cell-based
Kindly note that pEC50 refers to -log10 of the concentration in mol/L and answer with the value alone.

molecule | test_system | pEC50
O=C(Nc1nc(-c2ccccc2)ns1)[C@@H]1CCCN1c1ccc(Cl)cc1 | human CB2R (Homo sapiens, UniProt P34972) | 8.31
Cc1cc(N2C(=O)CC[C@H]2C(=O)Nc2cc(C(C)(C)C)on2)ccc1Cl | human CB2R (Homo sapiens, UniProt P34972) | 7.23
CC(C)(C)c1csc(NC(=O)[C@@H]2CCCN2c2ccc(C(F)(F)F)cn2)n1 | human CB2R (Homo sapiens, UniProt P34972) | 8.07
O=C(Nc1nc(C2CCCCC2)cs1)[C@@H]1C[C@@H](O)CN1CC1CCOCC1 | human CB2R (Homo sapiens, UniProt P34972) | 6.82
CCC(C)CN1CCC[C@H]1C(=O)Nc1cc(C(C)(C)C)no1 (stereo partly drawn) | human CB2R (Homo sapiens, UniProt P34972) | 9.94

# next molecule below
Prompt: Provide value of pEC50 for this record tested with human CB2R (Homo sapiens, UniProt P34972): CC(C)(C)c1cc(NC(=O)[C@@H]2CCCN2CC2CCCCC2)on1
Completion: 10.10

---

- test_system: human CB2R (Homo sapiens, UniProt P34972)
- assay_summary: CB2R mediated modulation of cAMP synthesis
- Assay type: cell-based
pEC50: −log10 of the molar value.
Lab note: anything with pEC50 at or over 8 counts as 1.0; the rest go in 0.0.

Examples from the recorded data:
molecule | label_value
O=C(Nc1nc(C2CC2)cs1)[C@@H]1CCCN1c1ccc(Cl)cc1 | 0.0
CC(C)(C)c1cc(NC(=O)[C@@H]2C[C@H](O)CN2c2ncc(C(F)(F)F)cc2Cl)no1 | 1.0
CC(C)(CO)c1cc(NC(=O)[C@@H]2CCC(=O)N2c2ccc(Cl)cc2)on1 | 0.0
CC(C)(C)c1cc(NC(=O)[C@@H]2CCC(=O)N2c2cccc(F)c2)on1 | 0.0
CC(C)(C)c1cc(NC(=O)[C@@H]2CCCN2Cc2ccc(Cl)cc2)on1 | 1.0
CC1(C)CC(=O)C=C(NC(=O)[C@@H]2CCCN2c2ccc(Cl)cc2)C1 | 0.0
CCC(C)c1ccc(NC(=O)[C@@H]2CCC(=O)N2c2ncc(C(F)(F)F)cc2Cl)cc1 (stereo partly shown) | 0.0
O=C(Nc1nc(C(F)(F)F)co1)[C@@H]1CCCN1c1ccc(Cl)cc1 | 1.0

Prompt: Decide: pEC50 of O=C(Nc1nc2cc(Cl)c(Cl)cc2[nH]1)[C@@H]1CCCN1CC1CCOCC1 >= 8?
Completion: 0.0

---

Listed here: items and their measured EC50.
- test_system: UniProt:P34972
- assay_summary: CB2R mediated modulation of cAMP synthesis
- Assay type: cell-based
In your response, put the unit directly after the numeric value.

Examples from the recorded data:
smiles_text | EC50
CC(C)(C)Cc1cc(NC(=O)[C@@H]2CCCN2CC2CCOCC2)on1 | 3.46 nM
CC(C)(C)c1cc(NC(=O)[C@@H]2CCC(=O)N2c2ccc(F)c(F)c2)on1 | 16 nM
CC(C)(C)c1cc(NC(=O)[C@@H]2CCC(=O)N2c2ccc(F)c(Cl)c2)on1 | 26.7 nM
CC(C)(C)c1cc(NC(=O)[C@@H]2CCCN2C2CCC2)on1 | 6.28 nM
Cc1ccc(N2C(=O)CC[C@H]2C(=O)Nc2cc(C(C)(C)C)no2)cc1 | 163 nM

Prompt: If you can, please state the reported EC50 value of CC(C)c1cc(NC(=O)[C@@H]2CCC(=O)N2c2ccc(C(F)(F)F)cc2)on1 .
Completion: 41.8 nM

Prompt: Now the same for O=C(Nc1ccc(C(F)(F)F)cn1)[C@H]1CCCN1c1ccc(C(F)(F)F)cc1
Completion: 70.7 nM

Prompt: Another molecule: Cc1ccc(NC(=O)[C@@H]2CCCN2c2ccc(Cl)cc2)nc1
Completion: 120 nM

Prompt: What do you get for C=Cc1ccc(N2C(=O)CC[C@H]2C(=O)Nc2cc(C(C)(C)C)on2)cc1 ?
Completion: 70 nM

Prompt: Input O=C(Nc1nnc(-c2ccccc2)s1)[C@@H]1CCCN1c1ccc(Cl)cc1
Completion: 11.2 nM

Prompt: And what about the molecule CCCS(=O)(=O)N1CCC[C@H]1C(=O)Nc1cc(C(C)(C)C)on1 ?
Completion: 120 nM
